system: Liver microsomes; assay: Metabolic stability in human liver microsomes assessed as compound remaining; type: ADME, Microsome
Think of 40% as a floor: if Stability stands on it or above, it is true (1); beneath it, false (0).

Consider the following illustrative entries.
Cc1cc(Cn2ccnc2C(Cc2cc(C)c3[nH]ncc3c2)NC(=O)N2CCC(N3Cc4ccccc4NC3=O)CC2)cc(Cl)n1 (racemic)    false (0)
Cc1cc(CC(NC(=O)N2CCC(N3Cc4ccccc4NC3=O)CC2)c2ncc(C)n2Cc2cccc(F)c2)cc2cn[nH]c12 (racemic)    true (1)
Cc1cc(CC(NC(=O)N2CCC(N3Cc4ccccc4NC3=O)CC2)c2nccn2Cc2cc(F)cc(F)c2)cc2cn[nH]c12 (racemic)    true (1)

Challenge: Reported Stability reaches at least 40% for Cc1cc(CC(NC(=O)N2CCC(N3Cc4ccccc4NC3=O)CC2)c2nccn2Cc2ccccn2)cc2cn[nH]c12 (racemic) ?
Response given: false (0)

Challenge: Could you please find out whether Cc1cc(CC(NC(=O)N2CCC(N3Cc4ccccc4NC3=O)CC2)c2nccn2Cc2cccnc2)cc2cn[nH]c12 (racemic) has Stability that meets 40% or exceeds it?
Response given: false (0)

Challenge: Threshold query (Stability >= 40%) on Cc1cc(CC(NC(=O)N2CCC(N3Cc4ccccc4NC3=O)CC2)c2nc(Br)cn2Cc2cc(F)cc(F)c2)cc2cn[nH]c12 (racemic)
Response given: true (1)

Challenge: I'd appreciate it if you could say whether Cc1cc(Cn2ccnc2C(Cc2cc(C)c3[nH]ncc3c2)NC(=O)N2CCC(N3Cc4ccccc4NC3=O)CC2)ccn1 (racemic) has Stability at least equal to 40%.
Response given: false (0)

Data origin: ChEMBL document CHEMBL2429735
